# experimentalTarget: human GPR40 receptor (Homo sapiens, UniProt O14842)
# Sequence (O14842 whole entry): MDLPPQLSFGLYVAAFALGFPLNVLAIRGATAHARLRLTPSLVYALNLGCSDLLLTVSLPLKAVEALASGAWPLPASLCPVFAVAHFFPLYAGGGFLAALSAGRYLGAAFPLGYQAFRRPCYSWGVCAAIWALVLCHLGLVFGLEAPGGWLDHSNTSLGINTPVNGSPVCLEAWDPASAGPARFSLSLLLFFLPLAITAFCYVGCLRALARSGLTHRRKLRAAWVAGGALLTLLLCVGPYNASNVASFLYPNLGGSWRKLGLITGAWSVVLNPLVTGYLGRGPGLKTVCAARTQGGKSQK
# measurementDescription: IP1 accumulation measurements using the IPOne assay system
# conditionDescription: 1321N1 cells stably expressing human GPR40 receptor, stimulation 1 h at 37° C.
pEC50: −log10 of the molar value.
Mark class 0 for pEC50 values under 7, and class 1 for everything at or above.

Example results:
- smilesRepresentation: "Nc1cc(F)c(-c2cc(CNc3ccc([C@H]4C[C@@H]4C(=O)O)cn3)c(F)cc2F)c(F)c1"
  discreteLabel: "class 0"
- smilesRepresentation: "COc1cc(OC)c(F)c(-c2cc(CNc3ccc([C@H]4C[C@@H]4C(=O)O)cn3)c(F)cc2F)c1F"
  discreteLabel: "class 0"
- smilesRepresentation: "Cc1cc(-c2cnccn2)cc(C)c1-c1ccc(F)c(CNc2ccc([C@H]3C[C@@H]3C(=O)O)cn2)c1"
  discreteLabel: "class 1"

Read the next record carefully.
Data request: Item Cc1cc(-c2nnn(C)n2)cc(C)c1-c1cc(CNc2ccc([C@H]3C[C@@H]3C(=O)O)cn2)c(F)cc1F with pEC50 of 7 or above?
Data returned: class 1

----------
Can you tell me EC50 for the items I'm about to list?
# experimentalTarget: human GPR40 receptor (Homo sapiens, UniProt O14842)
# measurementDescription: IP1 accumulation measurements using the IPOne assay system
# Format: cell-based
# conditionDescription: 1321N1 cells stably expressing human GPR40 receptor, stimulation 1 h at 37° C.
# Description: IP1 accumulation measurements using the IPOne assay system—1321N1 cells stably expressing human GPR40 receptor (Euroscreen, Belgium) are seeded 24 h before the assay in white 384-well plates in culture medium containing 10% FCS, 1% Na-Pyruvate and 400 μg/mL G418. IPi is assayed according to the manufacturer's description (Cisbio Bioassays, France). […] After an incubation time of 1 h at room temperature plates are measured using an EnVision™, Perkin Elmer. […]

- smilesRepresentation: "Cc1cc(OCCCS(C)(=O)=O)cc(C)c1-c1ccc(F)c(CNc2ccc([C@H]3C[C@@H]3C(=O)O)cn2)c1"
  EC50: "> 10000 nM"
- smilesRepresentation: "N#Cc1cccc(C#N)c1-c1cc(CNc2ccc([C@H]3C[C@@H]3C(=O)O)cn2)c(F)cc1F"
  EC50: "> 10000 nM"
- smilesRepresentation: "Cc1cc(OCc2ccccc2)cc(C)c1-c1cc(CNc2ccc([C@H]3C[C@@H]3C(=O)O)cn2)c(F)cc1F"
  EC50: "65 nM"
- smilesRepresentation: "Cc1cc(O[C@H]2CCOC2)cc(C)c1-c1cc(CNc2ccc([C@H]3C[C@@H]3C(=O)O)cn2)c(F)cc1F"
  EC50: "42 nM"

Next compound, please.
# EC50 of Cc1cc(OCC(=O)O)cc(C)c1-c1ccc(F)c(CNc2ccc([C@H]3C[C@@H]3C(=O)O)cn2)c1 = 353 nM

----------
Can you tell me Amount of degradation after 2 h for the items I'm about to list?
# measurementDescription: Chemical stability (degradation kinetics) at pH value of ca. 1.2
# Type: physicochemical
# conditionDescription: pH value of ca. 1.2 (acetonitrile/0.1 M aqueous HCl 2:3), 37° C., HPLC

- compound: "Cc1cccc(C)c1-c1ccc(F)c(CNc2ccc([C@H]3C[C@@H]3C(=O)O)cn2)c1 [Example 18]"
  metricName: "Amount of degradation after 2 h"
  valueReported: "<0.5%"

// for each compound in input: emit Amount of degradation after 2 h
1. Cc1cc(-c2nnn(C)n2)cc(C)c1-c1ccc(F)c(CNc2ccc([C@H]3C[C@@H]3C(=O)O)cn2)c1 [Example 48]
2. CC(C)(O)CCOc1ccc(-c2cc(CNc3ccc([C@H]4C[C@@H]4C(=O)O)cn3)ccc2C(F)(F)F)cc1 [Example 4]

Data returned:
1. <0.5%
2. <0.5%

Recorded values, source patent US10538490B2.
